Kindly state Mean RLU on day 7 for each of the entries shown.
# Tested on: MTB in J774 cells
# method summary: Intracellular activity of amino acid conjugates
# Assay type: cell-based, Mycobacterium tuberculosis
# condition info: 4 μg/ml; day 0 RLU 775, Control day 7 31700
Number in RLU, nothing else.

# lookup: MTB in J774 cells Mean RLU on day 7, key = CCCCCCCCCC(=O)O[C@@H]1[C@H](OC)[C@@H]([C@@H](OC2OC(C(=O)N[C@H]3CCC[C@@H](C)NC3=O)=C[C@H](OC(=O)CCOCCOCCOCCOCCN)[C@@H]2OC(=O)CCOCCOCCOCCOCCN)C(N)=O)O[C@H]1n1ccc(=O)[nH]c1=O (stereo partly shown) [SQ641-2topdec] 4354

Tell me its Mean RLU on day 7 on MTB in J774 cells: CCCCCCCCCC(=O)O[C@@H]1[C@H](OC)[C@@H]([C@@H](O[C@H]2OC(C(=O)N[C@H]3CCC[C@@H](C)NC3=O)=C[C@H](O)[C@@H]2O)C(N)=O)O[C@H]1n1ccc(=O)[nH]c1=O [SQ641] 4707

Fill in Mean RLU on day 7 for CCCCCCCCCC(=O)O[C@@H]1[C@H](OC)[C@@H]([C@@H](OC2OC(C(=O)N[C@H]3CCC[C@@H](C)NC3=O)=C[C@H](OC(=O)CCOCCOCCOCCOCCN)[C@@H]2O)C(N)=O)O[C@H]1n1ccc(=O)[nH]c1=O (stereo partly shown) [SQ641-topdec] tested with MTB in J774 cells. 3368

Check MTB in J774 cells data and give Mean RLU on day 7 for CCCCCCCCCC(=O)O[C@@H]1[C@H](OC)[C@@H]([C@@H](OC2OC(C(=O)N[C@H]3CCC[C@@H](C)NC3=O)=C[C@H](OC(=O)CCCCCCCCCCN)[C@@H]2O)C(N)=O)O[C@H]1n1ccc(=O)[nH]c1=O (stereo partly shown) [SQ641-aua] . 3163

====

# Test system: MAC
# method summary: Synergy by checkerboard titration (microdilution)
# Format: cell-based, M. avium complex
# condition info: Mycobacterium avium, MAC JSH1; drug alone
I'd appreciate it if you could supply MIC values for the items below.
Give just the number in µg/mL; leave the unit off.

Quote MIC reported for NCC[C@H](O)C(=O)N[C@@H]1C[C@H](N)[C@@H](O[C@H]2O[C@H](CN)[C@@H](O)[C@H](O)[C@H]2O)[C@H](O)[C@H]1O[C@H]1O[C@H](CO)[C@@H](O)[C@H](N)[C@H]1O [AMK, amikacin, reference compound] please. 16

Give the value of MIC reported for the following: CC[C@H]1OC(=O)[C@H](C)[C@@H](O[C@H]2C[C@@](C)(OC)[C@@H](O)[C@H](C)O2)[C@H](C)[C@@H](O[C@@H]2O[C@H](C)C[C@H](N(C)C)[C@H]2O)[C@](C)(OC)C[C@@H](C)C(=O)[C@H](C)[C@@H](O)[C@]1(C)O [CLA, clarithromycin, reference compound] 1

Answer with the recorded MIC of CCCCCCCCCC(=O)O[C@@H]1[C@H](OC)[C@@H]([C@@H](O[C@H]2OC(C(=O)N[C@H]3CCC[C@@H](C)NC3=O)=C[C@H](O)[C@@H]2O)C(N)=O)O[C@H]1n1ccc(=O)[nH]c1=O only. 1

# return recorded MIC for entry CC[C@@H](CO)NCCN[C@@H](CC)CO [EMB, ethambutol, reference compound] 32

====

What MIC was measured for each of the following?
# Tested on: M. avium complex (MAC)
# method summary: MIC by microdilution method in 7H9 broth
# Assay type: cell-based
# condition info: Mycobacterium avium, MAC strain A5; read-out: MIC
Express the reported value numerically, then name its unit.

Look up MIC of COC(=O)C1=C[C@H](O)[C@H](O)[C@@H](O[C@@H](C(N)=O)[C@H]2O[C@@H](n3ccc(=O)[nH]c3=O)[C@H](O)[C@@H]2OC)O1 and report it. 32 µg/mL

Entry CO[C@H]1[C@@H](O)[C@H](n2ccc(=O)[nH]c2=O)O[C@@H]1[C@@H](O[C@H]1OC(C(=O)Nc2ccc(C(F)(F)F)cc2)=C[C@H](O)[C@@H]1O)C(N)=O needs its MIC filled in; supply it. 2 µg/mL

Provide MIC value for the following molecule: NCC[C@H](O)C(=O)N[C@@H]1C[C@H](N)[C@@H](O[C@H]2O[C@H](CN)[C@@H](O)[C@H](O)[C@H]2O)[C@H](O)[C@H]1O[C@H]1O[C@H](CO)[C@@H](O)[C@H](N)[C@H]1O [AMK, amikacin, reference compound] 4 µg/mL

Could you please provide reported MIC for CC[C@@H](CO)NCCN[C@@H](CC)CO [EMB, ethambutol, reference compound] ? Thanks! 1 µg/mL

Please indicate MIC recorded for CO[C@H]1[C@@H](O)[C@H](n2ccc(=O)[nH]c2=O)O[C@@H]1[C@@H](O[C@H]1OC(C(=O)Nc2ccc(F)c(C(F)(F)F)c2)=C[C@H](O)[C@@H]1O)C(N)=O 1 µg/mL

Output MIC of CC[C@H]1OC(=O)[C@H](C)[C@@H](O[C@H]2C[C@@](C)(OC)[C@@H](O)[C@H](C)O2)[C@H](C)[C@@H](O[C@@H]2O[C@H](C)C[C@H](N(C)C)[C@H]2O)[C@](C)(OC)C[C@@H](C)C(=O)[C@H](C)[C@@H](O)[C@]1(C)O [CLA, clarithromycin, reference compound] 0.125 µg/mL

Quote MIC reported for CO[C@H]1[C@@H](O)[C@H](n2ccc(=O)[nH]c2=O)O[C@@H]1[C@@H](O[C@H]1OC(C(=O)Nc2cccc(F)c2)=C[C@H](O)[C@@H]1O)C(N)=O please. 1 µg/mL

State its MIC: CO[C@H]1[C@@H](O)[C@H](n2ccc(=O)[nH]c2=O)O[C@@H]1[C@@H](O[C@H]1OC(C(=O)Nc2ccc(Br)c(C)c2)=C[C@H](O)[C@@H]1O)C(N)=O 0.25 µg/mL

Return value of MIC for input CO[C@H]1[C@@H](O)[C@H](n2ccc(=O)[nH]c2=O)O[C@@H]1[C@@H](O[C@H]1OC(C(=O)Nc2ccc([N+](=O)[O-])cc2)=C[C@H](O)[C@@H]1O)C(N)=O , no commentary. 0.5 µg/mL

Report MIC, nothing else, for this molecule: CO[C@H]1[C@@H](O)[C@H](n2ccc(=O)[nH]c2=O)O[C@@H]1[C@@H](O[C@H]1OC(C(=O)Nc2ccc(F)c(F)c2F)=C[C@H](O)[C@@H]1O)C(N)=O 1 µg/mL

====

# System: M. avium complex (MAC)
# method summary: MIC by microdilution method in 7H9 broth
# Type: cell-based
# condition info: Mycobacterium avium, MAC strain 104; read-out: MIC
So I've got a bunch of compounds here, and I need their MIC values.
Your reply should be a number followed by the unit it is expressed in.

Please supply the value of reported MIC for the item CO[C@H]1[C@@H](O)[C@H](n2ccc(=O)[nH]c2=O)O[C@@H]1[C@@H](O[C@H]1OC(C(=O)Nc2ccc(Br)c(C)c2)=C[C@H](O)[C@@H]1O)C(N)=O 0.25 µg/mL

Specify reported MIC for the compound shown: CCCCCCCCCC(=O)O[C@@H]1[C@H](OC)[C@@H]([C@@H](O[C@H]2OC(C(=O)N[C@H]3CCC[C@@H](C)NC3=O)=C[C@H](O)[C@@H]2O)C(N)=O)O[C@H]1n1ccc(=O)[nH]c1=O 2 µg/mL

Input CO[C@H]1[C@@H](O)[C@H](n2ccc(=O)[nH]c2=O)O[C@@H]1[C@@H](O[C@H]1OC(C(=O)Nc2ccc([N+](=O)[O-])cc2)=C[C@H](O)[C@@H]1O)C(N)=O , output reported MIC. 1 µg/mL

Given the compound CO[C@H]1[C@@H](O)[C@H](n2ccc(=O)[nH]c2=O)O[C@@H]1[C@@H](O[C@H]1OC(C(=O)Nc2ccc(F)c(F)c2)=C[C@H](O)[C@@H]1O)C(N)=O , write its reported MIC. 4 µg/mL

Kindly indicate its recorded MIC. Item: CO[C@H]1[C@@H](O)[C@H](n2ccc(=O)[nH]c2=O)O[C@@H]1[C@@H](O[C@H]1OC(C(=O)Nc2cccc(F)c2)=C[C@H](O)[C@@H]1O)C(N)=O 1 µg/mL

====

# Tested on: M. avium complex (MAC)
# method summary: MIC by microdilution method in 7H9 broth
# Assay type: cell-based
# condition info: Mycobacterium avium, 336 h, MAC isolates; 2 wk; read-out: MIC (range)
test readout: MIC

Retrieve MIC measured for CO[C@H]1[C@@H](O)[C@H](n2ccc(=O)[nH]c2=O)O[C@@H]1[C@@H](O[C@H]1OC(C(=O)N[C@H]2CCC[C@@H](C)NC2=O)=C[C@H](O)[C@@H]1O)C(N)=O [SQ997] and print it. 4 to 32 µg/mL

Read off the recorded MIC for CC[C@H]1OC(=O)[C@H](C)[C@@H](O[C@H]2C[C@@](C)(OC)[C@@H](O)[C@H](C)O2)[C@H](C)[C@@H](O[C@@H]2O[C@H](C)C[C@H](N(C)C)[C@H]2O)[C@](C)(OC)C[C@@H](C)C(=O)[C@H](C)[C@@H](O)[C@]1(C)O [CLA, clarithromycin, reference compound] 0.062 to 32 µg/mL
